Tested on: COMI
ASSAY NOTES: Inhibition of mitochondrial translation in human COMI cells assessed as decrease in COX1 expression level at 0.5 to 5 uM incubated for 48 hrs by immunoblotting analysis
Type: functional, cell-based
REPORTED CONDITIONS: dose 0.5-5 µM
Calls of active or inactive are those of the source. The rule behind the calls is not given here.
Your answer must be one of the following: active, inactive

>>> category_label("CCN(CC)CCS(=O)(=O)[C@@H]1CCN2C(=O)c3coc(n3)C[C@H](F)C[C@H](O)/C=C(C)/C=C/CNC(=O)/C=C/[C@@H](C)[C@@H](C(C)C)OC(=O)[C@@H]12")
"active"
>>> category_label("CCN(CC)CCS(=O)(=O)[C@@H]1CCN2C(=O)c3coc(n3)CC(=O)C[C@H](O)/C=C(C)/C=C/CNC(=O)/C=C/[C@@H](C)[C@@H](C(C)C)OC(=O)[C@@H]12 [DALFOPRISTIN]")
"active"

**Query** Name the outcome recorded for CCN(CC)CCS(=O)(=O)[C@@H]1CCN2C(=O)c3coc(n3)C[C@H](NC)C[C@H](O)/C=C(C)/C=C/CNC(=O)/C=C/[C@@H](C)[C@@H](C(C)C)OC(=O)[C@@H]12 in the assay.
**Result** inactive

###

Tested on: COMI
ASSAY NOTES: Inhibition of mitochondrial translation in human COMI cells assessed as decrease in COX1 expression level at 0.5 to 5 uM incubated for 48 hrs by immunoblotting analysis
Assay type: functional, cell-based
REPORTED CONDITIONS: dose 0.5-5 µM
The source made the active and inactive calls. The rule behind the calls is not given here. *1 amine or outer side, *2 acyl side, *3 side chain or, on linkers, in order; H or OH if unused. Where a SMILES comes first, the peptide text is derived from it. Bridges are numbered along the chain shown (N, C = ends). [ ]: non-standard residue; d: D form. The star is where a group is joined. X1 = O=C1C[C@@H](C(=O)[*:2])N([*:1])C[C@H]1CS[C@@H]1CN2CCC1CC2; NMePhe(4-NMe2) = CN[C@@H](Cc1ccc(N(C)C)cc1)C(=O)O; Picolinoyl(3-OH) = O=C(c1ncccc1O)*; Phg = N[C@H](C(=O)O)c1ccccc1; dAbu = CC[C@@H](N)C(=O)O
MEASURED ENDPOINT: inhibition

>>> reported_value("CN[C@H]1Cc2nc(co2)C(=O)N2CCC=C2C(=O)O[C@H](C(C)C)[C@H](C)/C=C/C(=O)NC/C=C/C(C)=C/[C@@H](O)C1")
"inactive"
>>> reported_value("CC[C@H]1NC(=O)[C@@H](NC(=O)c2ncccc2O)[C@@H](C)OC(=O)[C@H](c2ccccc2)NC(=O)[C@@H]2CC(=O)[C@H](CS[C@@H]3CN4CCC3CC4)CN2C(=O)[C@H](Cc2ccc(N(C)C)cc2)N(C)C(=O)[C@@H]2CCCN2C1=O [QUINUPRISTIN] ({Picolinoyl(3-OH)}-T[dAbu]P[NMePhe(4-NMe2)][X1][Phg]; ester 1-C)")
"inactive"
>>> reported_value("CN[C@@H]1Cc2nc(co2)C(=O)N2CCC=C2C(=O)O[C@H](C(C)C)[C@H](C)/C=C/C(=O)NC/C=C/C(C)=C/[C@@H](O)C1")
"inactive"

###

Test system: COMI
ASSAY NOTES: Inhibition of mitochondrial translation in human COMI cells assessed as decrease in COX1 expression level at 0.5 to 5 uM incubated for 48 hrs by immunoblotting analysis
Format: functional, cell-based
REPORTED CONDITIONS: dose 0.5-5 µM
Active and inactive are the calls of the source. The rule behind the calls is not given here.
Your answer must be one of the following: 1 for active, -1 for inactive

Observe how each entry below is paired with its result.
>>> category_label("CC1=C\\[C@@H](O)C[C@@H](F)Cc2nc(co2)C(=O)N2CCC[C@@H]2C(=O)O[C@H](C(C)C)[C@H](C)/C=C/C(=O)NC\\C=C\\1")
1
>>> category_label("CC1=C\\[C@@H](O)C[C@@H](F)Cc2nc(co2)C(=O)N2CCC=C2C(=O)O[C@H](C(C)C)[C@H](C)/C=C/C(=O)NC\\C=C\\1")
1

Field: next molecule
**Query** Name the outcome recorded for CCN(CC)CCS(=O)(=O)[C@@H]1CCN2C(=O)c3coc(n3)C[C@@H](NC)C[C@H](O)/C=C(C)/C=C/CNC(=O)/C=C/[C@@H](C)[C@@H](C(C)C)OC(=O)[C@@H]12 in the assay.
**Result** -1

Just for reference, ChEMBL document CHEMBL5331076 is where these values come from.
